# ASSAY TARGET: biotinylated labeled human GPC3 protein (produced in-house) (human, UniProt P51654 25-559, limits assumed, biotinylated (Dojindo, Cat. No. LK03); sites not stated)
# ASSAY NAME: ELISA, biotinylated human GPC3 protein
ASSAY READOUT: OD450 at 0.11 nM
Report field: quantity (unit follows the number).

hAb007LH3L1b (antibody, human IgG1, V domains shown, Humanized F3.81.19; VH H3 + VL L1b; expressed as human IgG1) VH: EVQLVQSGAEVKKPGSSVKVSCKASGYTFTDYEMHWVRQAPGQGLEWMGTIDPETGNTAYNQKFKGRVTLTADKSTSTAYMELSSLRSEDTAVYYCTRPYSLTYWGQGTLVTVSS VL: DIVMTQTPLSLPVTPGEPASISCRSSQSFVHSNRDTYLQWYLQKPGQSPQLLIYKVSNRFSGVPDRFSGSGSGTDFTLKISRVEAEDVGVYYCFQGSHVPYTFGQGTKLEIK ... 0.784 OD450

Then this binder:
Would you mind telling me what OD450 at 0.11 nM value was observed for hAb006LH1L1b (antibody, human IgG1, V domains shown, Humanized F3.38.7; VH H1 + VL L1b; expressed as human IgG1) VH: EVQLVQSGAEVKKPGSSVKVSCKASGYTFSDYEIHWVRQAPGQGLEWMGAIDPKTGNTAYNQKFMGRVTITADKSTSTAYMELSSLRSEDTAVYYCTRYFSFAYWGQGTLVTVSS VL: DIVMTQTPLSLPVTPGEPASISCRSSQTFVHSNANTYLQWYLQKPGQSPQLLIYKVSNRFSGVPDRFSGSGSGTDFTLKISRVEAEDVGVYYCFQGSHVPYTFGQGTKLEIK ? 1.71 OD450
